targetOrSystem: Epidermal growth factor receptor (Homo sapiens)
protocol: compounds binding epidermal growth factor receptor – biochemical, small-molecule microarray, 635 nm fluorescence, primary screen (AID 1104);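 note: score merges 667 nm emission intensity with spot signal to noise over triplicate slides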
testContext: EGFR binding, higher = more signal
measuredEndpoint: composite z-score
Provide a numeric answer; units are not to be included.

{"compound": "O=C(NC1CC1)[C@@H]1c2ccccc2C(=O)N(Cc2cc(F)cc(C(F)(F)F)c2)[C@H]1c1ccc(CO)cc1", "composite z-score": -1.18}

Write down composite z-score measured for item `COC(=O)[C@]1(CCC(=O)OC(C)(C)C)N=C(c2ccc(OCCCO)cc2)O[C@@H]1c1ccccc1`
-0.754

Provide measured composite z-score value, entry: `COc1ccc([C@H]2C[C@H]3C(Br)=C[C@@]2(CO)C(=O)[C@]32CO2)cc1`
0.197

Look up and report measured composite z-score for this entry: O=C1OCC=C[C@H]2OC34C=CCN(Cn5nnc6ccccc65)C(=O)[C@H]3N(CCCCCO)C(=O)[C@@H]4[C@@H]12 (stereo partly specified)
-1.31

Entry `COc1cc2c(cc1OC)CN(C(=O)[C@H]1[C@@H]3C(=O)O[C@@H](c4ccccc4)[C@@H](c4ccccc4)N3[C@@H](c3ccccc3OCCO)[C@]13C(=O)Nc1ccc(C#CCCO)cc13)CC2` needs its composite z-score filled in; supply it.
0.47

Answer with reported composite z-score of `COCCCNC(=O)[C@@]1(Cc2ccccc2)N=C(c2ccc(OCCCO)cc2)O[C@H]1c1ccccc1CN=[N+]=[N-]`
-0.105

Hello, please tell me recorded composite z-score for this one: `CC(=O)NCCCC[C@@H]1NC(=O)[C@H]2C[C@@H](C(=O)NCCCCCNC(=O)CS)[C@@H](c3ccc(O)cc3)N2C1=O`
-0.578

Specify measured composite z-score for COc1ccc(C(O)C2C=CC3C(=O)N(C)C(=O)C3N2N(c2ccccc2)c2ccccc2)c2ccccc12 (stereo unspecified) .
0.23

Answer with reported composite z-score of `CC(C)[C@@H](C(=O)O)n1cc(C2(O)CCCCC2)nn1`
0.15

Please give measured composite z-score of the following entry: `COc1cc2c(cc1O)C=[N+](Cc1cc3c(cc1Br)OCO3)CC2`
-0.486

Fill in reported composite z-score for this entry: `COCC(=C=CC[C@H](O)c1cccc(OCCO)c1)C[C@H](O)c1cc(Cl)cc(Cl)c1O`
0.331

Fill in reported composite z-score for this entry: C[C@H]1C2[C@H](Cc3ccccc3)NC(=O)[C@]23C(=O)NCC(=O)N2CCC[C@H]2C(=O)NC/C=C/CCC/C=C/C3[C@@H]2O[C@]12C (stereo partly specified)
-0.681

Indicate the recorded composite z-score value for this compound: `[N-]=[N+]=NCc1ccccc1[C@H]1OC(c2ccc(OCCCO)cc2)=N[C@@]1(Cc1ccccc1)C(=O)N1CCCCC1`
0.0201

Specify composite z-score for O=C1C2C=CC(C(O)c3ccc(-c4ccccc4)s3)N(Nc3ccccc3)C2C(=O)N1c1ccccc1 (stereo unspecified) and stop.
-0.0664

Please indicate composite z-score recorded for `C[N+](C)(C)CCCC[C@@H]1NC(=O)[C@H]2C[C@@H](C(=O)NCCCCCCNC(=O)CS)[C@@H](c3ccc(O)cc3)N2C1=O`
-0.805

* * *

protocol: optical density change of DRC41 E. coli – strain DRC41, OD650, 24 h, E. coli filamentation project, primary screen (AID 1093);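 note: MC1000 strain lacking acrAB efflux and sulA so SOS filamentation is blocked; test concentration not given here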
testContext: E. coli DRC41 growth, higher = more signal, called active from +8 up or from −8 down
Please use T whenever z-score is not below 0.1, and F whenever it is.

{"molecule": "CCOC(=O)[C@H]1C/C=C/C[C@H](C(=O)OCC)C(=O)O[C@H]2[C@@H](OC)O[C@H](CO)[C@@H](OC(=O)c3ccc(Br)cc3)[C@@H]2OC1=O", "assignedCategory": "F"}
{"molecule": "CC(=O)Nc1cc(Br)ccc1C(=O)NCc1ccccc1", "assignedCategory": "F"}
{"molecule": "COc1ccc(NN2C(C(O)c3ccc(N(C)C)cc3)C=CC3C(=O)N(C4CCCCC4)C(=O)C32)cc1 (stereo not drawn)", "assignedCategory": "F"}
{"molecule": "COC(=O)[C@@]1(Cc2ccc(OC)cc2)[C@H]2c3cc(C(=O)N4CCCC4)n(CCCNc4ncc(C(F)(F)F)cc4Cl)c3C[C@H]2CN1C(=O)c1ccccc1", "assignedCategory": "F"}

Confirm if z-score reported for the molecule `O=C(CS)NCCCCCNC(=O)[C@@H]1C[C@@H]2C(=O)NCC(=O)N2[C@@H]1c1cccc(OCCO)c1` is 0.1 or above.
T

Item `CCCC=C(CCC)[C@@H](NC(=O)OCC(C)C)c1ccccc1` with z-score of 0.1 or above?
F

Evaluate `COC(=O)[C@@]1(Cc2ccc(OC)cc2)[C@H]2c3cc(C(=O)N(C)C)n(Cc4ccc(C(F)(F)F)nc4)c3C[C@H]2CN1C(=O)c1ccccc1` : z-score at minimum 0.1?
T
